assayedSystem: EGFR wt (Homo sapiens, UniProt P00533)
Sequence (P00533 25-1210): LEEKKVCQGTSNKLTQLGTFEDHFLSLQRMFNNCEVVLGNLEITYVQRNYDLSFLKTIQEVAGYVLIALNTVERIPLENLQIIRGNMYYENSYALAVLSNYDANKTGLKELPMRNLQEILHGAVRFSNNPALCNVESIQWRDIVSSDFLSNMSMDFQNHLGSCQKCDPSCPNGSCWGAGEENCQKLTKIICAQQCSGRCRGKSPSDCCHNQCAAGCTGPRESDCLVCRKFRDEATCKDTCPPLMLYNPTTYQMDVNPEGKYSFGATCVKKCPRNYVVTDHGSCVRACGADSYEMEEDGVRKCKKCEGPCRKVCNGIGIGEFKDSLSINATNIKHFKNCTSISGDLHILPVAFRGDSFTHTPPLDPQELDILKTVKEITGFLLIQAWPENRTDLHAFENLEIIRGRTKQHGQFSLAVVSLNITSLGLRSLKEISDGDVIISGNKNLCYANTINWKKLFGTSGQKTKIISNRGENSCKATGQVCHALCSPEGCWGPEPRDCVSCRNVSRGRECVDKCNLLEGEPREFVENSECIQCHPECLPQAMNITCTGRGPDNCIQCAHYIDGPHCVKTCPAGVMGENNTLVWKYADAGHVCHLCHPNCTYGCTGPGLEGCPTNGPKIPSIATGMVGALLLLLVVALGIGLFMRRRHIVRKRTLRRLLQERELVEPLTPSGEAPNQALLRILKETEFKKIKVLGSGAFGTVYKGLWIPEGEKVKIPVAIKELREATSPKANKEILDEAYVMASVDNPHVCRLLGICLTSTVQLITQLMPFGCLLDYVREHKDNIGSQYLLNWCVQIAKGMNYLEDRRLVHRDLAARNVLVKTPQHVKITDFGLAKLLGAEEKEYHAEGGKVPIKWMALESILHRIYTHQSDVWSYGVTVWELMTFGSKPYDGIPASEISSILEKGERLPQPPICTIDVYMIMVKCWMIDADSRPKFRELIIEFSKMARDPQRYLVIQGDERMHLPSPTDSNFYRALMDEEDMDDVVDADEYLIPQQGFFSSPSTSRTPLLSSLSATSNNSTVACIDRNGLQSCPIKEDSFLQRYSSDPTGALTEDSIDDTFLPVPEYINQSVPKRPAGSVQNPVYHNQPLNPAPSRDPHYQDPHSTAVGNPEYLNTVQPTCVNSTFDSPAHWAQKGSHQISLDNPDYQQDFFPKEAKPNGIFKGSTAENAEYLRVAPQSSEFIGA
protocolSummary: EGFR wt Lance assay
Assay type: biochemical
Examples of compounds with documented IC50 follow.

Some entries whose results are on file:
compound	result
C=CC(=O)Nc1cc(-c2c(-c3ccc(OCCN(C)C)cc3)[nH]c3ncc(C(=O)OC(C)C)cc23)ccc1C [Example 159]	≤ 0.1 µM
C=CC(=O)Nc1cc(-c2c(-c3cccc(CN4CCN(C(C)=O)CC4)c3)[nH]c3ncc(C(=O)OC(C)C)cc23)ccc1C [Example 186]	≤ 0.1 µM

Next compound, please.
What the record says about C=CC(=O)N1CCCc2ccc(-c3c(-c4ccc(N5CCN(C)CC5)cc4)[nH]c4nccc(Cl)c34)cc21 [Example 86, 2,2,2-trifluoroacetate] : IC50 is ≤ 0.1 µM

====

Entries and their IC50 values follow.
assayedSystem: EGFR wt (Homo sapiens)

Some compounds with known IC50 results, for comparison:
compound	IC50
C=CC(=O)N1CCOc2ccc(-c3c(-c4ccc(N5CCN(C)CC5)cc4)[nH]c4nccc(Cl)c34)cc21 [Example 83, 2,2,2-trifluoroacetate]	≤ 100 nM
C=CC(=O)Nc1cc(-c2c(-c3ccc(C(=O)N4CCOCC4)cc3)[nH]c3nccc(Cl)c23)ccc1C [Example 11]	≤ 100 nM
C=CC(=O)Nc1cc(-c2c(-c3ccc(N4CCN(C)CC4)c(F)c3)[nH]c3ncc(C(=O)OC(C)C)cc23)ccc1C [Example 164]	≤ 100 nM

Entry C=CC(=O)Nc1cc(-c2c(-c3ccc(N4CCN(C)CC4)cc3)[nH]c3nccc(Cl)c23)cc(C)c1C [Example 150, 2,2,2-trifluoroacetate] under EGFR wt (Homo sapiens) had IC50 of ≤ 100 nM

Record C=CC(=O)N1CCOc2ccc(-c3c(-c4ccc(OCCN5CCCC5)cc4)[nH]c4nccc(Cl)c34)cc21 [Example 101] ; system EGFR wt (Homo sapiens); IC50 = ≤ 100 nM

Observed IC50 on EGFR wt (Homo sapiens), entry C=CC(=O)Nc1cc(-c2c(-c3ccc(N4CCN(C)CC4)cc3)[nH]c3ncc(OC(F)(F)F)cc23)ccc1C [Example 188, 2,2,2-trifluoroacetate] , equals ≤ 100 nM

For C=CC(=O)Nc1cc(-c2c(-c3ccc(N4CCN(C)CC4)cc3)[nH]c3ncc(CC(=O)OC4COC4)cc23)ccc1C [Example 197] on EGFR wt (Homo sapiens), measured IC50 was ≤ 100 nM

Record C=CC(=O)N1CCOc2ccc(-c3c(-c4cccc(OCCN5CCCC5)c4)[nH]c4nccc(Cl)c34)cc21 [Example 103] ; system EGFR wt (Homo sapiens); IC50 = ≤ 100 nM

====

Measured GI50, listed per entry for reference.
assayedSystem: EGFR Exon 20 INSNPH Ba/F3 (Homo sapiens, UniProt P00533, DUP771-773, cells depend on it)
Sequence (P00533 with tags, fused parts or gaps DUP771-773): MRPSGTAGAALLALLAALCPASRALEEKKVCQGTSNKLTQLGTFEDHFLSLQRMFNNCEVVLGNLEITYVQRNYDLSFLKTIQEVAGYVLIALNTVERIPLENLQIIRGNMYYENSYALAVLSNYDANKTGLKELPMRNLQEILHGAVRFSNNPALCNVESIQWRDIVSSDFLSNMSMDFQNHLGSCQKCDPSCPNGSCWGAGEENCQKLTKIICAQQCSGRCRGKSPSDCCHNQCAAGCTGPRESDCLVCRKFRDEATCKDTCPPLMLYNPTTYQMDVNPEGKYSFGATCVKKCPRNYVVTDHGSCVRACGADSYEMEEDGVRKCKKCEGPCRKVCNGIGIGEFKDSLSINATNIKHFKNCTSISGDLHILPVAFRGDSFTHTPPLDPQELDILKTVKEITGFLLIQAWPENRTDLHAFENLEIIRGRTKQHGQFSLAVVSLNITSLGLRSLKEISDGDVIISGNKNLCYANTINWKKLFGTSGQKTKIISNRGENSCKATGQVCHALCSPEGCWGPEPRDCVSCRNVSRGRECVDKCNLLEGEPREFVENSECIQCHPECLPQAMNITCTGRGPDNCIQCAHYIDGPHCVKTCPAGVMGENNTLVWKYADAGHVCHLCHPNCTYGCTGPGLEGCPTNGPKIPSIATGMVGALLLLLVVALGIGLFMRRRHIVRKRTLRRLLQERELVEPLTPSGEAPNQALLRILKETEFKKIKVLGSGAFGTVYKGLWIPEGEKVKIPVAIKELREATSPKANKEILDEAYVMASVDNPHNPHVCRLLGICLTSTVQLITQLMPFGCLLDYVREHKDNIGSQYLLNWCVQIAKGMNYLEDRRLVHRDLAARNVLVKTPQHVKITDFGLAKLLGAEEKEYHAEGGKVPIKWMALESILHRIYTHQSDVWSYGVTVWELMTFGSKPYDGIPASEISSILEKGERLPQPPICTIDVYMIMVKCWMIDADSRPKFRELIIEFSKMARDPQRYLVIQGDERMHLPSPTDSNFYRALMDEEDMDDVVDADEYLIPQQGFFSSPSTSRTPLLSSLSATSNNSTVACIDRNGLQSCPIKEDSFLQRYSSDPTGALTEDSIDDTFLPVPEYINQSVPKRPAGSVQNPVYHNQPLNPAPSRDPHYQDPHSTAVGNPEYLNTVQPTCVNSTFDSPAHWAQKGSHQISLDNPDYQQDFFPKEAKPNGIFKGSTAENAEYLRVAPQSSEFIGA
protocolSummary: EGFR Exon 20 INSNPH Ba/F3 CellTiter-Glo
Type: cell-based
protocolConditions: CellTiter-Glo, 72 h, read-out: EGFR Exon 20 INSNPH Ba/F3 CTG IC50

Sample records with GI50:
compound	result
C=CC(=O)Nc1cc(-c2c(-c3ccc(N4CCN(C)CC4)cc3)[nH]c3ncc(OCC)cc23)ccc1C [Example 193, 2,2,2-trifluoroacetate]	100 to 500 nM
C=CC(=O)N1CCc2ccc(-c3c(-c4ccc(N5CCN(C(C)C)CC5)cc4)[nH]c4nccc(Cl)c34)cc21	100 to 500 nM
C=CC(=O)Nc1cc(-c2c(-c3ccc(N4CCN(C)CC4)cc3)[nH]c3ncc(Cl)c(C)c23)ccc1C	100 to 500 nM
C=CC(=O)Nc1cc(-c2c(-c3ccc(N4CCN(C)CC4)cc3)[nH]c3ncc(CC)cc23)ccc1C [Example 191, 2,2,2-trifluoroacetate]	100 to 500 nM
C=CC(=O)Nc1cc(-c2c(-c3ccc(N4CCN(C)CC4)cc3)[nH]c3ncc(C(=O)NCc4ccc(F)cc4F)cc23)ccc1C	1000 to 10000 nM
C=CC(=O)Nc1cc(-c2c(-c3ccc(CCO)cc3)[nH]c3ncc(C(=O)OC(C)C)cc23)ccc1C	500 to 1000 nM

Attention now shifts to the item below.
Form field GI50, entry C=CC(=O)Nc1cc(-c2c(-c3ccc(N(C)CCN(C)C)cc3)[nH]c3nccc(Cl)c23)ccc1C : ≤ 100 nM
